Experiment: in vitro
Details: dog, MDCK cells
Measured Quantity: selectivity ratio

Known selectivity ratio results, listed for orientation:
Molecule | Measured Quantity | Reported Value
O=C(O[C@@H]1Cc2c(O)cc(O)cc2O[C@@H]1c1cc(O)c(O)c(O)c1)c1cc(O)c(O)c(O)c1 [EPIGALOCATECHIN GALLATE] | selectivity ratio | > 3.3
COC(=O)[C@@H]1Cc2cc(O)c(O)cc2[C@H](Cc2ccc(O)c(O)c2)N1C(=O)c1ccc(C(F)(F)F)cc1 | selectivity ratio | > 10.8

Let us examine a further case.
Prompt: Quote selectivity ratio reported for "COC(=O)[C@@H]1Cc2cc(O)c(O)cc2[C@H](Cc2ccc(O)c(O)c2)N1C(=O)c1cccc(C(F)(F)F)c1" please.
Response: > 11.8

Data origin, for the record: ChEMBL document CHEMBL5316264
